For each record, write down the corresponding binding signal.
SYSTEM_NAME: HIV-1 Rev (Human immunodeficiency virus 1, UniProt P04618 P04618:1-116)
Sequence (P04618 whole entry, one chain of several): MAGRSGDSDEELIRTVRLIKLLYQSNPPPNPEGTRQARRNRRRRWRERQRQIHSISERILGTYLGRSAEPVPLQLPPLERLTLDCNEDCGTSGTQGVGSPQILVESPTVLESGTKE
MEASUREMENT_NOTES: filter; non-specific binding only
MEASUREMENT_CONTEXT: tags: none stated; heparin-Sepharose and Superose 6 purified; chain copies: oligomer (tetramer likely; about 4 per RBC6, 6-8 per full-length RRE at 50 mM KCl) stated; label: 32P uniform
Answers are plain numbers, in % RNA bound at 10 nM rev.

See these solved cases before continuing.
BINDER	binding signal (% RNA bound at 10 nM rev)
R49 (ssRNA, [none]) RNA: GGGAGACCGGAAUUCUGGGCGCAGUGUCAUUGACGCUGCGUACAGAAUUCCGGCA	2
R56 (ssRNA, [none]) RNA: GGGAGACCGGAAUUCUGGGUGCAGUGUCAUUGACGCUGCAGUACAGAAUUCCGGCA	6
R58 (ssRNA, [none]) RNA: GGGAGACCGGAAUUCUGGGCGCAGUGUCAUUGACGCUGCGAUACAGAAUUCCGGCA	6

Attention now shifts to the item below.
[in] Which measured binding signal value corresponds to R41 (ssRNA, [none]) RNA: GGGAGACCGGAAUUCUGGGGGCAGUGUCAUUGACGCUGCCGUACAGAAUUCCGGCA ?
[out] 2
